# MEASUREMENT_TARGET: CYP3A4 (Homo sapiens)
# Construct: 0.1 mg/mL human liver microsomes; from tissue; host or cells: human liver microsomes
# Sequence (P08684 whole entry): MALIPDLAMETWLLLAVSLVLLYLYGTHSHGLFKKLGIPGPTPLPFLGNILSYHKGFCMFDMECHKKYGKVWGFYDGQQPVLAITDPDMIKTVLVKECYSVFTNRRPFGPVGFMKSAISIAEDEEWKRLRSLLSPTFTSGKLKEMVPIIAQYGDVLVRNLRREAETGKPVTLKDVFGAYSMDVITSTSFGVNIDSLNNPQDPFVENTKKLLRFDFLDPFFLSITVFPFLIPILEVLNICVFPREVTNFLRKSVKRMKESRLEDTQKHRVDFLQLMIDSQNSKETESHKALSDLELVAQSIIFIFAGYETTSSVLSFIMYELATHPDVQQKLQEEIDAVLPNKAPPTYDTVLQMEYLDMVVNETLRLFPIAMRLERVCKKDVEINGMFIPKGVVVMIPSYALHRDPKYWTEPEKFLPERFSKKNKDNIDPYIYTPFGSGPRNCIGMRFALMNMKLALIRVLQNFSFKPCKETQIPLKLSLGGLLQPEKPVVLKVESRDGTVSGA
# PROCEDURE_TEXT: IC50 against CYP3A4 by inhibition of testosterone metabolism in human liver microsomes
# Format: biochemical
# RUN_PARAMETERS: 0.1 mg/mL human liver microsomes, 25 μM testosterone, 1 mM NADPH, 6-β-OH-testosterone production, eight minutes; read-out: IC50, μM (HLM, testosterone)
Mark each entry Yes if its IC50 sits below 0.06 µM, and No for all others.

# strict comparison: is reported IC50 < 0.06 µM? input = `CC(=O)NC1CN(C(=O)Cn2nc(-c3ccncc3)cc2Cc2ccc(F)cc2)C1`
No

# strict comparison: is reported IC50 < 0.06 µM? input = `CC(=O)N(C)C1CCN(C(=O)Cn2nc(-c3ccncc3)cc2Cc2ccc(F)cc2)CC1`
Yes

# strict comparison: is reported IC50 < 0.06 µM? input = `O=C(Cn1nc(-c2ccncc2)cc1Cc1ccc(F)cc1)N1CC(N2CCOCC2)C1`
No

# strict comparison: is reported IC50 < 0.06 µM? input = `O=C(Cn1nc(-c2ccncc2)cc1Cc1ccc(F)cc1)N1CCC[C@H]1CO`
Yes

# strict comparison: is reported IC50 < 0.06 µM? input = `CC(C)(CN1CCOCC1)NC(=O)Cn1nc(-c2c[nH]nn2)cc1Cc1ccc(F)cc1`
No

# strict comparison: is reported IC50 < 0.06 µM? input = CC(=O)N(C)C1CCN(C(=O)Cn2nc(-c3ccncc3)cc2Cc2ccc(F)cc2)C1 (centres unmarked)
No

# strict comparison: is reported IC50 < 0.06 µM? input = `N[C@@H]1CCN(C(=O)Cn2nc(-c3ccncc3)cc2Cc2ccc(F)cc2)C1`
No

# strict comparison: is reported IC50 < 0.06 µM? input = `CC(C)C(=O)NC1CCN(C(=O)Cn2nc(-c3ccncc3)cc2Cc2ccc(F)cc2)CC1`
Yes
